assay: RAM signaling pathway blockade in yeast – S. cerevisiae, Pdr1DBD-CYC8 efflux-inhibited sensitized strain, primary screen (AID 1298);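 note: 0% = DMSO untreated cells without growth and 100% = 10 µM 1-NA-PP1 full growth; higher means more yeast growth rescued from 5-FOA killing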; settings: S. cerevisiae cbk1-as DSE1-URA3 strain, 5-FOA growth OD615, 2 d; at 50 µM; active compounds read high
Parameter RAM network inhibition: see the listing below.
// note: answer is a bare numeric in %

{"columns": ["compound", "unit-symbol", "RAM network inhibition"],
 "data": [
  ["COc1ccc(OC)c(NC(=O)c2cnc3n(c2=O)CCS3)c1", "%", 7.21],
  ["C(=N\\n1cnnc1)/c1ccc(N2CCOCC2)s1", "%", 8.67]
]}

### Prompt Tell me its RAM network inhibition given O=C(Cn1c(=O)n(-c2ccccc2)c(=O)n1CC(=O)N1CCCCC1)N1CCCCC1 as the entry.
### Response 0.57

### Prompt Tell me its RAM network inhibition given CC(C)Cc1cc(-c2ccco2)c(C#N)c(N)n1 as the entry.
### Response 9.01

### Prompt Tell me its RAM network inhibition given O=C(O)c1ccc2c(c1)N(Cc1cccc(F)c1)C(=O)CS2 as the entry.
### Response 1.36

### Prompt Tell me its RAM network inhibition given COc1ccc(Cl)cc1Nc1cc(C)nc2nc(C)nn12 as the entry.
### Response 3.45

### Prompt Tell me its RAM network inhibition given CN(C)c1ccc(C(=O)Nc2ccc(S(=O)(=O)NC3=NCCCCC3)cc2)cc1 as the entry.
### Response 3.12

### Prompt Tell me its RAM network inhibition given CCN1CCCC1CNC(=O)Cn1cnc2sc(C)c(S(=O)(=O)N3CCC(C)CC3)c2c1=O (configuration not stated) as the entry.
### Response 4.06

// provenance: PubChem BioAssay
